# Test system: Yellow Fever virus
# PROTOCOL_DESCRIPTION: microbe, parasite or virus in culture
# Assay type: cell-based
# TEST_CONDITIONS: Yellow fever virus, Vero, read-out: EC50 Yellow Fever virus
Measured EC50 of individual entries

Worked examples, 3 molecules total:
MOLECULE: O=[N+]([O-])c1cc2nc(Cl)n(CCCO)c2cc1[N+](=O)[O-]
RECORDED_VALUE: > 100 µg/mL

MOLECULE: NC(=O)c1ncn([C@@H]2O[C@H](CO)[C@@H](O)[C@H]2O)n1 [Ribavirin, reference compound]
RECORDED_VALUE: > 250000 nM

MOLECULE: OCCn1c(Cl)nc2ccccc21
RECORDED_VALUE: > 100 µg/mL

EC50 for `OCCCn1c(Cl)nc2ccccc21` ? > 100 µg/mL

Could you tell me which EC50 is on file for COc1c(C)c2c(c(O)c1C/C=C(\C)CCC(=O)O)C(=O)OC2 [Mycophenolic acid, reference compound] ? 800 nM

Fill in: EC50 of `OCCn1c(Cl)nc2cc(Br)c(Br)cc21` is ___ > 100 µg/mL

Quick check: EC50 of `O=[N+]([O-])c1ccc2c(c1)nc(Cl)n2CCO` ? > 100 µg/mL

Given `OCCCn1c(Cl)nc2cc(Br)c(Br)cc21` , state its recorded EC50. > 100 µg/mL

I'd like to know its EC50. The molecule in question is `O=[N+]([O-])c1cc2nc(Cl)n(CCO)c2cc1[N+](=O)[O-]` > 100 µg/mL

----------
# System: Reovirus-1
# PROTOCOL_DESCRIPTION: organism not typed
# Assay type: cell-based
# TEST_CONDITIONS: Vero, read-out: EC50 Reovirus-1
The following compounds are shown together with reported EC50 values.

COMPOUND: OCCCn1c(Cl)nc2cc(Br)c(Br)cc21 [Compound 3b]
TEST_TARGET: Reovirus-1
EC50: > 100 µg/mL
//
COMPOUND: O=[N+]([O-])c1ccc2c(c1)nc(Cl)n2CCCO [Compound 2b]
TEST_TARGET: Reovirus-1
EC50: > 100 µg/mL
//
COMPOUND: OCCCn1c(Cl)nc2ccccc21 [Compound 1b]
TEST_TARGET: Reovirus-1
EC50: > 100 µg/mL
//
COMPOUND: COc1c(C)c2c(c(O)c1C/C=C(\C)CCC(=O)O)C(=O)OC2 [Mycophenolic acid, reference compound]
TEST_TARGET: Reovirus-1
EC50: 6 µM
//
COMPOUND: O=[N+]([O-])c1cc2nc(Cl)n(CCO)c2cc1[N+](=O)[O-] [Compound 4a]
TEST_TARGET: Reovirus-1
EC50: > 100 µg/mL
//
COMPOUND: O=[N+]([O-])c1cc2nc(Cl)n(CCCO)c2cc1[N+](=O)[O-] [Compound 4b]
TEST_TARGET: Reovirus-1
EC50: > 100 µg/mL
//
COMPOUND: OCCn1c(Cl)nc2ccccc21 [Compound 1a]
TEST_TARGET: Reovirus-1
EC50: > 100 µg/mL
//
COMPOUND: NC(=O)c1ncn([C@@H]2O[C@H](CO)[C@@H](O)[C@H]2O)n1 [Ribavirin, reference compound]
TEST_TARGET: Reovirus-1
EC50: > 250 µM

Request - read-out EC50 | tested on Reovirus-1 | compound OCCn1c(Cl)nc2cc(Br)c(Br)cc21 [Compound 3a] > 100 µg/mL

Return EC50 measured with Reovirus-1 given this compound: O=[N+]([O-])c1ccc2c(c1)nc(Cl)n2CCO [Compound 2a] > 100 µg/mL

----------
# PROTOCOL_DESCRIPTION: in vitro
# TEST_CONDITIONS: human, Cytotoxicity % Viability Exp - 1, 100 μg/mL, 48 h
QUANTITY_NAME: viability (%)
Field: numeric (%). Do not append units.

I have this compound here, `O=[N+]([O-])c1ccc2c(c1)nc(Cl)n2CCCO` , and I need its recorded viability. 69.1

If you can, please state the reported viability value of `OCCCn1c(Cl)nc2cc(Br)c(Br)cc21` . 79.8

Any idea what its viability is? The compound is `OCCCn1c(Cl)nc2ccccc21` 58.6

// returns reported viability for input `O=[N+]([O-])c1cc2nc(Cl)n(CCO)c2cc1[N+](=O)[O-]` 11.2

Given `O=[N+]([O-])c1ccc2c(c1)nc(Cl)n2CCO` , state its recorded viability. 40.4

Which viability is listed for `OCCn1c(Cl)nc2cc(Br)c(Br)cc21` ? 0.96

Item under review: `OCCn1c(Cl)nc2ccccc21` . Reported viability? 53.6

# get_value(readout='viability', item= `O=[N+]([O-])c1cc2nc(Cl)n(CCCO)c2cc1[N+](=O)[O-]` ) 90.9

----------
# PROTOCOL_DESCRIPTION: in vitro
# TEST_CONDITIONS: human, Cytotoxicity % Viability Exp - 1, 10 μg/mL, 48 h
QUANTITY_NAME: viability (%)
Give just the numeric value; % need not be written.

Recorded viability, per entry:
COMPOUND: O=[N+]([O-])c1ccc2c(c1)nc(Cl)n2CCO [Compound 2a]
RECORDED_VALUE: 104
//
COMPOUND: O=[N+]([O-])c1ccc2c(c1)nc(Cl)n2CCCO [Compound 2b]
RECORDED_VALUE: 91.2
//
COMPOUND: O=[N+]([O-])c1cc2nc(Cl)n(CCO)c2cc1[N+](=O)[O-] [Compound 4a]
RECORDED_VALUE: 99.9
//
COMPOUND: OCCCn1c(Cl)nc2ccccc21 [Compound 1b]
RECORDED_VALUE: 92.6
//
COMPOUND: OCCCn1c(Cl)nc2cc(Br)c(Br)cc21 [Compound 3b]
RECORDED_VALUE: 102
//
COMPOUND: O=[N+]([O-])c1cc2nc(Cl)n(CCCO)c2cc1[N+](=O)[O-] [Compound 4b]
RECORDED_VALUE: 92.1

// lookup viability for OCCn1c(Cl)nc2cc(Br)c(Br)cc21 [Compound 3a] 18.5

Given OCCn1c(Cl)nc2ccccc21 [Compound 1a] , state its recorded viability. 90.1

----------
# Test system: Vero cells
# TEST_CONDITIONS: African green monkey
QUANTITY_NAME: Minimum cytotoxic concentration (MCC)

Solved cases (6 shown):
COMPOUND: OCCn1c(Cl)nc2cc(Br)c(Br)cc21 [Compound 3a]
QUANTITY_NAME: Minimum cytotoxic concentration (MCC)
RECORDED_VALUE: 100 µg/mL
--
COMPOUND: O=[N+]([O-])c1cc2nc(Cl)n(CCO)c2cc1[N+](=O)[O-] [Compound 4a]
QUANTITY_NAME: Minimum cytotoxic concentration (MCC)
RECORDED_VALUE: >100 µg/mL
--
COMPOUND: OCCCn1c(Cl)nc2cc(Br)c(Br)cc21 [Compound 3b]
QUANTITY_NAME: Minimum cytotoxic concentration (MCC)
RECORDED_VALUE: >100 µg/mL
--
COMPOUND: OCCn1c(Cl)nc2ccccc21 [Compound 1a]
QUANTITY_NAME: Minimum cytotoxic concentration (MCC)
RECORDED_VALUE: >100 µg/mL
--
COMPOUND: O=[N+]([O-])c1cc2nc(Cl)n(CCCO)c2cc1[N+](=O)[O-] [Compound 4b]
QUANTITY_NAME: Minimum cytotoxic concentration (MCC)
RECORDED_VALUE: ≥100 µg/mL
--
COMPOUND: OCCCn1c(Cl)nc2ccccc21 [Compound 1b]
QUANTITY_NAME: Minimum cytotoxic concentration (MCC)
RECORDED_VALUE: >100 µg/mL

Find the recorded Minimum cytotoxic concentration (MCC) belonging to O=[N+]([O-])c1ccc2c(c1)nc(Cl)n2CCO [Compound 2a] and report it. ≥100 µg/mL

----------
# PROTOCOL_DESCRIPTION: in vitro
# TEST_CONDITIONS: human, Cytotoxicity % Viability Exp - 2, 5 μg/mL, 48 h
QUANTITY_NAME: viability (%)
Express it in %; write the number only.

Entry under review: `OCCn1c(Cl)nc2cc(Br)c(Br)cc21` . Reported viability? 49

----------
# PROTOCOL_DESCRIPTION: in vitro
# TEST_CONDITIONS: human, Cytotoxicity % Viability Exp - 2, 10 μg/mL, 48 h
QUANTITY_NAME: viability
Please state the value followed by its unit.

# get_value(readout='viability', item= `OCCn1c(Cl)nc2cc(Br)c(Br)cc21` ) 13.7%

----------
# Tested on: Para-influenza-3 virus
# PROTOCOL_DESCRIPTION: organism not typed
# Type: cell-based
# TEST_CONDITIONS: Vero, read-out: EC50 Para-influenza-3 virus
Each entry below carries its recorded EC50.

MOLECULE: NC(=O)c1ncn([C@@H]2O[C@H](CO)[C@@H](O)[C@H]2O)n1 [Ribavirin, reference compound]
QUANTITY_NAME: EC50
RECORDED_VALUE: 250 µM

MOLECULE: OCCn1c(Cl)nc2ccccc21
QUANTITY_NAME: EC50
RECORDED_VALUE: > 100 µg/mL

MOLECULE: OCCn1c(Cl)nc2cc(Br)c(Br)cc21
QUANTITY_NAME: EC50
RECORDED_VALUE: > 100 µg/mL

MOLECULE: O=[N+]([O-])c1ccc2c(c1)nc(Cl)n2CCCO
QUANTITY_NAME: EC50
RECORDED_VALUE: > 100 µg/mL

MOLECULE: O=[N+]([O-])c1ccc2c(c1)nc(Cl)n2CCO
QUANTITY_NAME: EC50
RECORDED_VALUE: > 100 µg/mL

What measured EC50 goes with `O=[N+]([O-])c1cc2nc(Cl)n(CCCO)c2cc1[N+](=O)[O-]` ? > 100 µg/mL

Returns the measured EC50 for the input molecule. Input: `O=[N+]([O-])c1cc2nc(Cl)n(CCO)c2cc1[N+](=O)[O-]` > 100 µg/mL

Entry COc1c(C)c2c(c(O)c1C/C=C(\C)CCC(=O)O)C(=O)OC2 [Mycophenolic acid, reference compound] has what EC50? 0.6 µM

Look up EC50 for this molecule: `OCCCn1c(Cl)nc2cc(Br)c(Br)cc21` > 100 µg/mL

Dear colleague, I am looking for the recorded EC50 of the following molecule: `OCCCn1c(Cl)nc2ccccc21` > 100 µg/mL
